Parameter: MIC. Scope: all listed entries.
# Tested on: Klebsiella pneumoniae
# assay method text: Antibacterial activity against clinical isolate Klebsiella pneumoniae 1678 assessed as reduction in microbial growth incubated for 24 hrs by broth microdilution method
# Assay type: functional
// units = µg/mL; emit number, no label

Enquiry: Hi! What's the reported MIC for COc1c(N2C[C@@H]3CCCN(Cc4cnc(C)c(O)c4C)[C@@H]3C2)c(F)cc2c(=O)c(C(=O)O)cn(C3CC3)c12.Cl.Cl on Klebsiella pneumoniae?
Return: 64

Enquiry: Cool, now Cc1ncc(CN2CCN(c3cc4c(cc3F)c(=O)c(C(=O)O)cn4C3CC3)CC2)c(CO)c1O.Cl
Return: 8

Enquiry: Cool, now COc1c(N2C[C@@H]3CCCN(Cc4cnc(C)c5c4COC(C)(C)O5)[C@@H]3C2)c(F)cc2c(=O)c(C(=O)O)cn(C3CC3)c12
Return: 32

Enquiry: Cool, now CCn1cc(C(=O)O)c(=O)c2cc(F)c(N3CCN(Cc4cnc(C)c5c4COCO5)CC3)cc21.Cl
Return: 4

###

# assay method text: Cytotoxicity against human CHL assessed as reduction in cell viability incubated for 72 hrs by MTT assay
# Type: toxicity, cell-based
# measurement conditions: CHL cells
result type: CC50 at 72 h (µg/mL)
// units = µg/mL; emit number, no label

Example compounds with recorded CC50 at 72 h:
compound: CCn1cc(C(=O)O)c(=O)c2cc(F)c(N3CCNC(C)C3)c(F)c21 (centres undefined)
CC50 at 72 h [µg/mL]: 31.3
--
compound: Cc1ncc(CN2CCN(c3cc4c(cc3F)c(=O)c(C(=O)O)cn4C3CC3)CC2)c2c1OCOC2.Cl
CC50 at 72 h [µg/mL]: 14.9
--
compound: O=C(O)c1cn(C2CC2)c2cc(N3CCNCC3)c(F)cc2c1=O
CC50 at 72 h [µg/mL]: 29.3

Read the next record carefully.
Enquiry: Request the reported CC50 at 72 h associated with CCn1cc(C(=O)O)c(=O)c2cc(F)c(N3CCN(Cc4nc(C)c5c(c4CO)COC(C)(C)O5)CC3)cc21
Return: 7.05

###

# System: Escherichia coli
# assay method text: Antibacterial activity against Escherichia coli ATCC 25922 assessed as reduction in microbial growth incubated for 24 hrs by broth microdilution method
# Type: functional
Parameter: MIC. Scope: all listed entries.

Example molecules with recorded MIC:
molecule: CCn1cc(C(=O)O)c(=O)c2cc(F)c(N3CCN(Cc4nc(C)c(O)c(CO)c4CO)CC3)cc21.Cl
endpoint result: > 64 µg/mL
//
molecule: CCCCCCCCC1OCc2c(CN3CCN(c4cc5c(cc4F)c(=O)c(C(=O)O)cn5CC)CC3)cnc(C)c2O1 (stereo not given)
endpoint result: > 64 µg/mL
//
molecule: CCCC1OCc2c(CN3CCN(c4cc5c(cc4F)c(=O)c(C(=O)O)cn5C4CC4)CC3)cnc(C)c2O1 (stereo not given)
endpoint result: > 64 µg/mL

Enquiry: Hi! What's the reported MIC for COc1c(N2C[C@@H]3CCCN(Cc4nc(C)c(O)c(CO)c4CO)[C@@H]3C2)c(F)cc2c(=O)c(C(=O)O)cn(C3CC3)c12.Cl on Escherichia coli?
Return: > 64 µg/mL

Enquiry: Cool, now CCn1cc(C(=O)O)c(=O)c2cc(F)c(N3CCN(Cc4c(CO)nc(C)c(O)c4CO)CC3)cc21.Cl
Return: 8 µg/mL

Enquiry: Cool, now CCn1cc(C(=O)O)c(=O)c2cc(F)c(N3CCN(Cc4cnc(C)c(O)c4C)CC3)cc21.Cl
Return: 2 µg/mL

Enquiry: Cool, now CCCC1OCc2c(CN3CCC[C@H]4CN(c5c(F)cc6c(=O)c(C(=O)O)cn(C7CC7)c6c5OC)C[C@H]43)cnc(C)c2O1 (stereo not given in full)
Return: > 64 µg/mL

Enquiry: Cool, now CCCCCCCCC1OCc2c(CN3CCN(c4c(F)cc5c(=O)c(C(=O)O)cn(CC)c5c4F)CC3C)cnc(C)c2O1 (stereo not given)
Return: > 64 µg/mL

Enquiry: Cool, now CCn1cc(C(=O)O)c(=O)c2cc(F)c(N3CCN(Cc4cnc(C)c5c4COC(C)O5)CC3)cc21 (stereo not given)
Return: > 64 µg/mL

Enquiry: Cool, now CCn1cc(C(=O)O)c(=O)c2cc(F)c(N3CCNCC3)cc21 [NORFLOXACIN]
Return: 1 µg/mL
